- target-or-system: GHSR-1a (Homo sapiens (Human))
- Sequence (Q92847 whole entry): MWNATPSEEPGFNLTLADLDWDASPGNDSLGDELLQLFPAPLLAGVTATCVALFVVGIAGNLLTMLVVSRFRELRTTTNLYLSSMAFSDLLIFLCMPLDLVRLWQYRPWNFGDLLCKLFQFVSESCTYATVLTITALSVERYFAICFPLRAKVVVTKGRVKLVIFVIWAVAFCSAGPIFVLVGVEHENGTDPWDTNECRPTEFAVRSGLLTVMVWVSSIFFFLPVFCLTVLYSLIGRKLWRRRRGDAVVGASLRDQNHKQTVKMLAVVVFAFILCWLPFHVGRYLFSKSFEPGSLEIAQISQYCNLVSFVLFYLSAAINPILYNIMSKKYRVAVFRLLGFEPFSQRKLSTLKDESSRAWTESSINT
- assay-method-text: Agonistic activity for GHSR-1a, FLIPR calcium assay
- measurement-parameters: agonist activity assay, Flp In-CHO-GHSR Stable Pool cells, FLIPR calcium 6 kit; read-out: The activity (IC50) of polypeptide compounds for GHSR-1a
- Description: The use of recombinant expression of GHSR provides several advantages; for example, the receptor can be expressed in a determined cell system, so that it is easier to distinguish between the reactions of the compounds with GHSR and the reactions with other receptors. For example, cell lines such as HEK293, COS7 and CHO that […] can be used to express GHSR, and the same cell lines without expression vectors are used as controls. […]
pIC50: −log10 of the molar value. Non-standard residues stand in square brackets, D forms with d. Residues, ends and D or L forms follow the SMILES beside them. *: point of attachment. dBta = N[C@H](Cc1csc2ccccc12)C(=O)O; Ac4c(3-oxa) = NC1(C(=O)O)COC1; X1 = N[C@H]1CCC[C@H]1C(=O)*; dNle = CCCC[C@@H](N)C(=O)O; Nle = CCCC[C@H](N)C(=O)O; dAbu = CC[C@@H](N)C(=O)O; Api = NC1(C(=O)O)CCNCC1
parameter: pIC50

# example entries with known answers
compound	pIC50
NC(=O)C1(NC(=O)[C@H](Cc2ccccc2)NC(=O)[C@@H](Cc2c[nH]c3ccccc23)NC(=O)[C@@H](Cc2csc3ccccc23)NC(=O)C2(N)COC2)CCNCC1 [Compound 24] (H-[Ac4c(3-oxa)][dBta][dW]F[Api]-NH2)	8.27
CC[C@@H](N)C(=O)N[C@H](Cc1csc2ccccc12)C(=O)N[C@H](Cc1c[nH]c2ccccc12)C(=O)N[C@@H](Cc1ccccc1)C(=O)N[C@H](CCCCN)C(N)=O [Compound 32] (H-[dAbu][dBta][dW]F[dK]-NH2)	8.62
CCCC[C@@H](N)C(=O)N[C@H](Cc1csc2ccccc12)C(=O)N[C@H](Cc1c[nH]c2ccccc12)C(=O)N[C@@H](Cc1ccccc1)C(=O)N[C@H](CCCCN)C(N)=O [Compound 49] (H-[dNle][dBta][dW]F[dK]-NH2)	7.23
CCCC[C@H](N)C(=O)N[C@H](Cc1csc2ccccc12)C(=O)N[C@H](Cc1c[nH]c2ccccc12)C(=O)N[C@@H](Cc1ccccc1)C(=O)N[C@H](CCCCN)C(N)=O [Compound 50] (H-[Nle][dBta][dW]F[dK]-NH2)	7.17
NC(=O)[C@H](Cc1ccccc1)NC(=O)[C@@H](Cc1c[nH]c2ccccc12)NC(=O)[C@@H](Cc1csc2ccccc12)NC(=O)[C@@]12CNC[C@@H]1C2 [Compound 80]	7.45

I = C[C@@H](N)C(=O)N[C@H](Cc1csc2ccccc12)C(=O)N[C@H](Cc1c[nH]c2ccccc12)C(=O)N[C@@H](Cc1ccccc1)C(=O)NC1(C(N)=O)CCNCC1 [Compound 12] (H-[dA][dBta][dW]F[Api]-NH2)
II = NC(=O)[C@H](Cc1ccccc1)NC(=O)[C@@H](Cc1c[nH]c2ccccc12)NC(=O)[C@@H](Cc1csc2ccccc12)NC(=O)[C@H]1CCNC1 [Compound 76]
III = NC(=O)C1(NC(=O)[C@H](Cc2ccccc2)NC(=O)[C@@H](Cc2c[nH]c3ccccc23)NC(=O)[C@@H](Cc2csc3ccccc23)NC(=O)[C@@H]2CCC[C@@H]2N)CCNCC1 [Compound 21] (X1-[dBta][dW]F[Api]-NH2)
IV = NC(=O)C1(NC(=O)[C@H](Cc2ccccc2)NC(=O)[C@@H](Cc2c[nH]c3ccccc23)NC(=O)[C@@H](Cc2csc3ccccc23)NC(=O)[C@@H]2CCCN2)CCNCC1 [Compound 15] (H-P[dBta][dW]F[Api]-NH2)
I would appreciate it if you could sort these 4 compounds by pIC50, starting from the smallest number. Show the ranking through the labels, in the order asked for.
I, III, II, IV
